Test system: MDA-MB-468 breast
Assay: NCI-60 one-dose screen, 48 h (100 = growth as untreated, 0 = no growth, -100 = all killed)
Conditions: 10 µM unless noted
Compounds without any hit were thinned out: in the full panel of roughly 83,000, 20% have a hit. Activity calls are given as the source filed them. How the source made its calls: active means growth percent below 10; inactive means the rest.
endpoint name: growth

For orientation, consider the following solved cases.
{"columns": ["molecule", "measured"],
 "data": [
  ["CCC1NC(=O)c2cc(S(N)(=O)=O)c(Cl)cc2N1 (centres undefined)", "107% (inactive)"],
  ["Cc1ccc(-c2nc(SCC(=O)Nc3nc(-c4ccc(Cl)cc4)cs3)[nH]c(=O)c2C#N)cc1", "117% (inactive)"],
  ["O=C(COc1ccc(/C=C2\\Cc3ccccc3C2=O)cc1)c1ccc(Cl)cc1", "111% (inactive)"],
  ["COC(=O)C(Cc1ccccc1)NC(=O)c1ccc(NC(=O)c2[nH]c(C)c(Cl)c2Cl)c(OC(C)C)c1 (centres undefined)", "96.8% (inactive)"]
]}

Record request: growth value, item `O=c1oc2ccc(Cl)cc2c(=O)n1-c1ccc(F)cc1F`
-4.5% (active)

====

Test system: MDA-MB-468 breast
Test: NCI-60 one-dose screen, 48 h
Conditions: 10 µM unless noted
About 83,000 compounds went through this panel and 20% of them were active in at least one assay; those are over-represented in the sample as a whole. Calls of active or inactive are those of the source. Rule for the calls: active = growth percent below 10; inactive = the rest.
Result category, one only: t = active, f = inactive

{"columns": ["molecule", "category label"],
 "data": [
  ["O=C(O)/C=C\\C(=O)N1C/C(=C\\c2ccccc2Cl)C(=O)/C(=C/c2ccccc2Cl)C1", "t"]
]}

How did this test come out for `COC(=O)c1ccc2c(c1)nc(-c1ccc(Cl)cc1)n2-c1cc(C(C)(C)C)[nH]n1` ?
f

Now the molecule `N#Cc1nc(-c2ccc(F)cc2)oc1S(=O)(=O)N1CCCCC1`
f

Now the molecule `Cc1nc2c(nnn2-c2ccccc2)c2nc(-c3ccccc3)oc(=O)c12`
f

Now the molecule C/C=C/C1=CN2C(=O)c3cc(OC4OC(C)C(NC)C(C)(O)C4O)c(C)c(O)c3N=C[C@@H]2C1 (some centres not stated)
t

Now the molecule `CCCNC(=O)c1ccc(S(N)(=O)=O)cc1`
f

Now the molecule CN1C(=O)N(C)C2C1NN=c1s/c(=C\c3ccc([N+](=O)[O-])cc3)c(=O)n12 (configuration not stated)
f

Now the molecule `CC(C)NCCCNC1=C(Cl)C(=O)c2ccccc2C1=O`
f

Now the molecule CC1=C[S+](c2ccccc2)c2cccc3cc4ccccc4c1c23 (configuration not stated)
t

Now the molecule C=C1CCC2C3(C)COC(c4ccc(SC)cc4)OC3CCC2(C)C1C/C=C1/C(=O)OCC1O (configuration not stated)
f

Now the molecule `N#Cc1c(-c2ccccc2)cc(-c2ccccc2)n(CCCCCCC(=O)O)c1=O`
f

Now the molecule `COc1cc(Cn2c(-c3nonc3N)nc3ccccc32)ccc1C`
f

Now the molecule `Nc1nc(N)c(N=Nc2c(Br)cc(S(N)(=O)=O)cc2Br)c(N)n1`
f

Now the molecule `CCNCCNc1cc(-c2ccc(C(F)(F)F)cc2)c(C#N)c2nc3cc(Cl)c(Cl)cc3n12`
t

Now the molecule `COc1ccc(CNc2nccnn2)cc1`
f

Now the molecule `Oc1ccc(CSc2nnc(-c3ccc(Cl)cc3)n2-c2ccccc2)c2cccnc12`
f

Now the molecule CCOC(=O)c1[nH]c2cc(Cl)ccc2c1[C@@H](C(=O)NC(C)(C)C)N(CC)C(=O)CCCCC#Cc1cccc2c1CN(C1CCC(=O)NC1=O)C2=O (some centres not stated)
t

Now the molecule `N#Cc1ccc(-n2nnc3ccccc32)cc1C#N`
f

Now the molecule `C#CCNCCN1C(=O)c2ccc3c4c(ccc(c24)C1=O)C(=O)N(CCNCC#C)C3=O`
f

Now the molecule `Cc1ccc(C(=O)/C=C/c2ccccc2)s1`
f

Now the molecule `N=C(N)c1ccc(-c2ccc(-c3ccccc3)o2)o1`
f

Now the molecule `CN(C)CCCn1c2c(c3cnccc3c1=O)C(=O)c1ccccc1-2`
t

Now the molecule Cc1[nH]c(C(=O)Nc2ccccc2OCc2cccc(C(=O)NC3CCNC3)c2)c(Cl)c1Cl (configuration not stated)
f

====

System: MDA-MB-468 breast
Assay: NCI-60 one-dose screen, 48 h
Conditions: 10 µM unless noted
About 83,000 compounds went through this panel and 20% of them were active in at least one assay; those are over-represented in the sample as a whole. Calls of active or inactive are those of the source. The calls were made as follows: active = growth percent below 10; inactive = the rest.
Result category, one only: yes = active, no = inactive

Examples with answers:
{"columns": ["molecule", "category label"],
 "data": [
  ["CCN(C(=O)c1cc2ccccc2[nH]1)[C@H]1CCC[C@@H](NCc2ccc(OC)cc2)C1", "no"],
  ["NC1=C(Cl)C(=O)c2ccc(S(N)(=O)=O)cc2C1=O", "yes"],
  ["O=C(CCOCCNC(=O)COc1ccc2c(c1)OCC(c1ccc(F)cc1)C2=O)NCCCC(O)(P(=O)(O)O)P(=O)(O)O (stereo not given)", "no"]
]}

How did this test come out for `CC(C)(C)CC(C)(C)c1ccc(OCCO)cc1` ?
no

Now the molecule `COc1ccc(/C=C/C(=O)c2cccc(B(O)O)c2)cc1O`
no

====

Tested on: OVCAR-3 ovarian
Assay: NCI-60 one-dose screen, 48 h
Details: 10 µM
About 83,000 compounds went through this panel and 20% of them were active in at least one assay; those are over-represented in the sample as a whole. Calls of active or inactive are those of the source. How the source made its calls: active means growth percent below 10; inactive means the rest.
Result category, one only: active, inactive

Examples with answers:
{"columns": ["compound", "category label"],
 "data": [
  ["COc1ccc(Cc2nn(CC(=O)N/N=C/c3ccc(Br)cc3)c(=O)c3c(C)noc23)cc1", "inactive"],
  ["O=C(c1ccc(Cl)cc1)C(c1c[nH]c2ccccc12)c1c[nH]c2ccccc12", "active"],
  ["CC(C)(C)c1cc(/C=C2\\S/C(=N/c3ncn[nH]3)NC2=O)cc(C(C)(C)C)c1O", "inactive"]
]}

How did this test come out for `O=C1NC(=S)S/C1=C\c1cn(-c2ccccc2)nc1-c1ccc([N+](=O)[O-])cc1` ?
inactive

Now the compound `O=C(CC(=O)Nc1ccc(Oc2ncnc3scc(Nc4n[nH]c(=S)s4)c23)cc1)Nc1ccc(Br)cc1`
inactive

Now the compound COc1ccc(C2c3sc4ccc(C)cc4c3Oc3nc(N)nc(N)c32)cc1 (centres undefined)
inactive

Now the compound `Cn1cc(-c2cc3nc(-c4c[nH]c5ccccc45)cc(N)n3n2)c2cc(Cl)ccc21`
active

Now the compound `Cn1cc(-c2nnc(N)nc2-c2c[nH]c3ccc(F)cc23)c2cc(Br)cnc21`
inactive

Now the compound COc1ccc(C2OC[C@@]3(C)C4CC[C@]5(C)C(CC=C6C7CC(C)(C)CC[C@]7(C(=O)O)CC[C@]65C)[C@@]4(C)C[C@@H](O)[C@@H]3O2)cc1 (some centres undefined)
inactive

====

Test system: MDA-MB-468 breast
Assay: NCI-60 one-dose screen, 48 h
Details: 10 µM unless noted
About 83,000 compounds went through this panel and 20% of them were active in at least one assay; those are over-represented in the sample as a whole. The source made the active and inactive calls. How the source made its calls: active means growth percent below 10; inactive means the rest.
Result category, one only: active, inactive

How did this test come out for `CS(=O)(=O)c1ccc(-n2cc(/C=N/O)c(-c3ccccc3)n2)cc1` ?
inactive

Now the molecule `CCC(=C(c1ccc(OCCN(C)C)cc1)c1ccc(OCCN(C)C)cc1)c1ccc(Cl)cc1`
active

Now the molecule `CC(=O)Nc1ccc(/C=N/N2CCCCCC2)cc1`
inactive

Now the molecule `O=c1ccc(=O)n(-c2nc(-c3ccc([N+](=O)[O-])cc3)cs2)[nH]1`
inactive

Now the molecule `S=C(SSC(=S)N1CCOCC1)N1CCOCC1`
inactive

Now the molecule `N#C/C(=C\c1ccc(-c2ccc(Br)cc2)o1)c1nc(-c2cccs2)cs1`
active

Now the molecule Oc1ccc(CCC2CCCC(CCc3ccc(OCCF)cc3)N2)cc1 (configuration not stated)
inactive

Now the molecule `NC(=S)N/N=C\c1nccc2c(C(F)(F)F)cccc12`
active

Now the molecule `COc1cc(C(=O)Nc2ccc(N(C)C)cc2)cc(OC)c1OC`
inactive

Now the molecule `CCN(CC)CCCNc1cccc2c(C)cc(OC)nc12`
inactive

Now the molecule `COCCn1cc(-c2csc(-c3cn(C)c4ccc(Br)cc34)n2)c2cccnc21`
inactive

Now the molecule `NCCNc1nc2ccc(F)cc2c2c(=O)c3cc(F)ccc3sc12`
inactive

Now the molecule COc1ccc(C(OCC2OC(n3ccc(NC(=O)c4ccccc4)nc3=O)C(O)C2O)(c2ccccc2)c2ccccc2)cc1 (configuration not stated)
inactive

Now the molecule `CCCCCCCCCCCCCCCCNCCC[C@@H](C)[C@H]1CC[C@H]2[C@@H]3[C@H](OCCCN)C[C@@H]4C[C@H](OCCCN)CC[C@]4(C)[C@H]3C[C@H](OCCCN)[C@]12C`
active

Now the molecule `O=C1/C=C/[C@@H](O)[C@@H]2C[C@@H](O)C[C@H]2/C=C/CCC[C@H](CCc2ccc(NC(=S)Nc3ccc4c(c3)C(=O)OC43c4ccc(O)cc4Oc4cc(O)ccc43)cc2)O1`
active

Now the molecule `Cc1cc2c(C(C)C)c(O)c(O)c(/C=N/O)c2c(O)c1-c1c(C)cc2c(C(C)C)c(O)c(O)c(/C=N/O)c2c1O`
inactive

Now the molecule `CCCCCCn1c(-c2ccc(C(=O)O/N=C(\N)c3ccc4ccccc4c3)cc2)nc(-c2ccccc2)c1-c1ccccc1`
inactive

Now the molecule `O=C(Cc1nc2ccc([N+](=O)[O-])cc2nc1CC(=O)c1cccnc1)c1cccnc1`
inactive

Now the molecule `NCCSSC/C=C\CSSCCN`
inactive

Now the molecule `C#C[C@]1(O)CC[C@H]2[C@@H]3CC=C4c5sc(N6CCN(C)CC6)nc5CC[C@]4(C)[C@H]3CC[C@@]21C`
inactive

Now the molecule CC1C(C)N(C(=O)CCl)c2ccccc2N1C(=O)CCl (configuration not stated)
active

Now the molecule `O=C(Nc1ccc(N=Cc2c(O)[nH]c3ccccc23)cc1)Nc1ccc(S(=O)(=O)Nc2ncccn2)cc1`
inactive

Now the molecule `O=[N+]([O-])c1cccc(-c2nc3cc4nc5ccccc5[nH]c4cc3n2)c1`
inactive

Now the molecule Cc1ccc(-n2nc3c(c(C#N)c2=O)CC(c2ccccc2[N+](=O)[O-])C([N+](=O)[O-])=C3O)cc1 (configuration not stated)
inactive
